Assay: Solubility of pitavastatin salts in buffers of pH 1.2 and pH 4.8
Format: physicochemical
Settings: appearance of the mixture at the reported pH and amount of salt added
Where a name gives a salt, the structure may show the parent alone.
metric: Appearance

O=C(O)C[C@H](O)C[C@H](O)/C=C/c1c(C2CC2)nc2ccccc2c1-c1ccc(F)cc1 [Tris(hydroxymethyl)-aminomethane salt] = Clear
NCc1ccco1.O=C(O)C[C@H](O)C[C@H](O)/C=C/c1c(C2CC2)nc2ccccc2c1-c1ccc(F)cc1 [Furfurylamine salt, pitavastatin-furfuryl amine salt] = Suspension
O=C(O)C[C@H](O)C[C@H](O)/C=C/c1c(C2CC2)nc2ccccc2c1-c1ccc(F)cc1 [Choline salt, pitavastatin-choline salt] = Clear
O=C(O)C[C@H](O)C[C@H](O)/C=C/c1c(C2CC2)nc2ccccc2c1-c1ccc(F)cc1 [Calcium salt, pitavastatin-Ca, reference compound] = Suspension
